- Study Target: MDM2 SWIB (E3 ubiquitin-protein ligase MDM2, SWIB domain) (human) (UniProt Q00987)
- Sequence (Q00987 whole entry, the tested form may be a part): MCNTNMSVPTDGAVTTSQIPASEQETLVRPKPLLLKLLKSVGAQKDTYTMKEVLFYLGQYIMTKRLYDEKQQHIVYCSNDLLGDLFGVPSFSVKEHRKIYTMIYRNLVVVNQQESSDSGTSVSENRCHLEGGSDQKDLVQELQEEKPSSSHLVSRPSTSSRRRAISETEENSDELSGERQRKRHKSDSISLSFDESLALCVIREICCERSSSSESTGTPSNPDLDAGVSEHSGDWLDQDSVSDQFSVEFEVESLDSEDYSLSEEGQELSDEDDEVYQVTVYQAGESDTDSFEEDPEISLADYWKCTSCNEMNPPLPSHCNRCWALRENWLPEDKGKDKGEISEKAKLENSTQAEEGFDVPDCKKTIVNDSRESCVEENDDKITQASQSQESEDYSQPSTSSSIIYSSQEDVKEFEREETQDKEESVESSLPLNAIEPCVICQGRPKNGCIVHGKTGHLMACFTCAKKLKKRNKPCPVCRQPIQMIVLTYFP
- Method Summary: fluorescence polarisation; competition: unlabelled peptide in serial dilution against the protein domain (master mix at four times the KD) with its FITC-labelled probe peptide; 50 mM KPO4 or NaPO4 pH 7.5; Ki calculated from IC50
Endpoint Label: pIC50
# log scale: pIC50 equals minus log10 of the concentration in mol/L

Worked set:
• GFEAQWAALENKSKQR [NUMB 616-630 peptide with an added N-terminal G] = 3.89
• TPEDDRSFQTVWATVF [KIAA1671 600-615 peptide] = 4.14

IN: Kindly indicate its recorded pIC50. Item: THFAELWGHLDHTMFF [RNF115 69-84 peptide]
OUT: 5.05
